molecular target: AtPPO1 S305L V365M (SEQ ID NO.128) (Arabidopsis thaliana, UniProt P55826, S305L/V365M); construct: made in house; host or cells: E. coli BL21 (DE3) hemG, crude extract; assay: fluorescent Protoporphyrinogen Oxidase assay, crude extract; format: biochemical; conditions: read-out: percentage inhibition
inhibition at 100 ppm overview
Give the value, in units of %, as a plain number.

Use these answered entries as a reference point.
>>> numeric_result("CCOC(=O)[C@]1(C)CC(c2cc(-n3c(=O)n(C)c(=S)n(C)c3=O)c(F)cc2Cl)=NO1 [Herbicide D]")
100
>>> numeric_result("CCOC(=O)C1(C)CC(c2cc(-n3c(=O)cc(C(F)(F)F)n(C)c3=O)c(F)cc2Cl)=NO1 (centres unmarked) [Herbicide C]")
100
>>> numeric_result("C#CCN1C(=O)C(F)(F)Oc2cc(F)c(-n3c(=O)n(C)c(=S)n(C)c3=O)cc21 [Herbicide B, trifludimoxazin]")
100
>>> numeric_result("CC(C)N(C)S(=O)(=O)NC(=O)c1cc(-n2c(=O)cc(C(F)(F)F)n(C)c2=O)c(F)cc1Cl [Herbicide E, saflufenacil]")
100

Shifting focus to the compound that follows.
-- ask Determine its reported inhibition at 100 ppm: CCOC(=O)COc1ncccc1Oc1cc(-n2c(=O)cc(C(F)(F)F)n(C)c2=O)c(F)cc1Cl [Herbicide A, epyrifenacil]
-- reply 91

----------
molecular target: AtPPO1 S305L Y362F G404A (SEQ ID NO.129) (Arabidopsis thaliana, UniProt P55826, G404A/S305L/Y362F); construct: made in house; host or cells: E. coli BL21 (DE3) hemG, crude extract; assay: fluorescent Protoporphyrinogen Oxidase assay, crude extract; type: biochemical; conditions: read-out: percentage inhibition
The molecules listed here are annotated with their inhibition at 10 ppm.
Express it in %; write the number only.

Worked examples, 4 molecules total:
>>> numeric_result("CC(C)N(C)S(=O)(=O)NC(=O)c1cc(-n2c(=O)cc(C(F)(F)F)n(C)c2=O)c(F)cc1Cl [Herbicide E, saflufenacil]")
84
>>> numeric_result("CCOC(=O)[C@]1(C)CC(c2cc(-n3c(=O)n(C)c(=S)n(C)c3=O)c(F)cc2Cl)=NO1 [Herbicide D]")
83
>>> numeric_result("CCOC(=O)COc1ncccc1Oc1cc(-n2c(=O)cc(C(F)(F)F)n(C)c2=O)c(F)cc1Cl [Herbicide A, epyrifenacil]")
92
>>> numeric_result("C#CCN1C(=O)C(F)(F)Oc2cc(F)c(-n3c(=O)n(C)c(=S)n(C)c3=O)cc21 [Herbicide B, trifludimoxazin]")
97

Please turn your attention to the following entry.
-- ask Give a short answer stating reported inhibition at 10 ppm for CCOC(=O)C1(C)CC(c2cc(-n3c(=O)cc(C(F)(F)F)n(C)c3=O)c(F)cc2Cl)=NO1 (centres unmarked) [Herbicide C] .
-- reply 93

----------
Target: AtPPO1 V365L G404A L479N (SEQ ID NO.136) (Arabidopsis thaliana, UniProt P55826, G404A/L479N/V365L)
Construct: made in house; host or cells: E. coli BL21 (DE3) hemG, crude extract
Sequence (P55826 35-537 V365L/G404A/L479N): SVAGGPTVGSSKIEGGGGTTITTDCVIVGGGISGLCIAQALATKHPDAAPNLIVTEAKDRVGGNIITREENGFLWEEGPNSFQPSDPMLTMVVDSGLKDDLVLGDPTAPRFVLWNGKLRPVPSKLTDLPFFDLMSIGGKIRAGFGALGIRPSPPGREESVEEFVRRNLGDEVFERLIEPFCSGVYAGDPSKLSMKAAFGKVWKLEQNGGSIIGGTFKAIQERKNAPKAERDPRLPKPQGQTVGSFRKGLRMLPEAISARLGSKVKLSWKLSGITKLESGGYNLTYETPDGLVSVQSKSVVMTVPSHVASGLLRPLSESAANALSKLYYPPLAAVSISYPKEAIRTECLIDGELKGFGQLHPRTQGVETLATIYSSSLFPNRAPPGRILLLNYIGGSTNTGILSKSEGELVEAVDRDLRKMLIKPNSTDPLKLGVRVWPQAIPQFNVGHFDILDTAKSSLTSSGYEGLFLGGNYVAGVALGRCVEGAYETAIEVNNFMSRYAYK
Experiment: fluorescent Protoporphyrinogen Oxidase assay, crude extract
Assay type: biochemical
Conditions: read-out: percentage inhibition
Method: A pET24 plasmid containing a DNA sequence encoding each identified variant mutant of AtPPO1 derived from Arabidopsis thaliana, codon-optimised for expression in E. coli, and under control of a T7 promoter, was synthesised by Twist Bioscience. […] Protein concentration was measured and calculated using the absorbance at 280 nm. Extracts were diluted 1 in 4 and 10 uL was analysed by SDS PAGE. […]
If the reported inhibition at 1 ppm equals or exceeds 80%, assign Satisfied. If not, assign Not satisfied.

>>> class_label("CCOC(=O)[C@]1(C)CC(c2cc(-n3c(=O)n(C)c(=S)n(C)c3=O)c(F)cc2Cl)=NO1 [Herbicide D]")
"Not satisfied"
>>> class_label("CC(C)N(C)S(=O)(=O)NC(=O)c1cc(-n2c(=O)cc(C(F)(F)F)n(C)c2=O)c(F)cc1Cl [Herbicide E, saflufenacil]")
"Not satisfied"
>>> class_label("CCOC(=O)COc1ncccc1Oc1cc(-n2c(=O)cc(C(F)(F)F)n(C)c2=O)c(F)cc1Cl [Herbicide A, epyrifenacil]")
"Satisfied"
>>> class_label("C#CCN1C(=O)C(F)(F)Oc2cc(F)c(-n3c(=O)n(C)c(=S)n(C)c3=O)cc21 [Herbicide B, trifludimoxazin]")
"Satisfied"

Then this compound:
-- ask Test whether the compound CCOC(=O)C1(C)CC(c2cc(-n3c(=O)cc(C(F)(F)F)n(C)c3=O)c(F)cc2Cl)=NO1 (centres unmarked) [Herbicide C] records inhibition at 1 ppm of 80% or higher.
-- reply Satisfied

----------
Molecular target: AtPPO1 S305L Y426V L479M (SEQ ID NO.131) (Arabidopsis thaliana, UniProt P55826, L479M/S305L/Y426V)
Construct: made in house; host or cells: E. coli BL21 (DE3) hemG, crude extract
Sequence (P55826 35-537 S305L/Y426V/L479M): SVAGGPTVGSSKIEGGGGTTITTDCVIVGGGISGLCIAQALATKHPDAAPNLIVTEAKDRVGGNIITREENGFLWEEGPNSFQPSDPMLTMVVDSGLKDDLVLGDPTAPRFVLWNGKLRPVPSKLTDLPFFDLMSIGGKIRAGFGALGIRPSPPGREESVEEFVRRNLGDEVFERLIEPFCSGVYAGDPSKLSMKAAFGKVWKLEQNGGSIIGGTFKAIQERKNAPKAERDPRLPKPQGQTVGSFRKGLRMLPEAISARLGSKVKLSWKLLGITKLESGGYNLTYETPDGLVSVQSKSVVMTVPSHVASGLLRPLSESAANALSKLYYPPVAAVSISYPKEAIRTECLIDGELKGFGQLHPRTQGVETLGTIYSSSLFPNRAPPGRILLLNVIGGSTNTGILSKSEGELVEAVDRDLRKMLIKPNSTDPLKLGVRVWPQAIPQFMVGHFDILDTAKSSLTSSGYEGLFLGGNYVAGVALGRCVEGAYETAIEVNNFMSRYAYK
Test: fluorescent Protoporphyrinogen Oxidase assay, crude extract
Type: biochemical
Conditions: read-out: percentage inhibition
# key: entry, value: inhibition at 1 ppm
Respond with the bare value in %.

>>> numeric_result("CCOC(=O)C1(C)CC(c2cc(-n3c(=O)cc(C(F)(F)F)n(C)c3=O)c(F)cc2Cl)=NO1 (centres unmarked) [Herbicide C]")
59

Now look at this one.
-- ask Input CCOC(=O)COc1ncccc1Oc1cc(-n2c(=O)cc(C(F)(F)F)n(C)c2=O)c(F)cc1Cl [Herbicide A, epyrifenacil] , output reported inhibition at 1 ppm.
-- reply 52

----------
target: AtPPO1 S305L Y426M (SEQ ID NO.124) (Arabidopsis thaliana, UniProt P55826, S305L/Y426M); construct: made in house; host or cells: E. coli BL21 (DE3) hemG, crude extract; experiment: fluorescent Protoporphyrinogen Oxidase assay, crude extract; type: biochemical; conditions: read-out: percentage inhibition
I would appreciate it if you labelled entries 1 (yes) when inhibition at 0.1 ppm is 50% or higher, otherwise 0 (no).

>>> class_label("CCOC(=O)[C@]1(C)CC(c2cc(-n3c(=O)n(C)c(=S)n(C)c3=O)c(F)cc2Cl)=NO1 [Herbicide D]")
"1 (yes)"
>>> class_label("CC(C)N(C)S(=O)(=O)NC(=O)c1cc(-n2c(=O)cc(C(F)(F)F)n(C)c2=O)c(F)cc1Cl [Herbicide E, saflufenacil]")
"0 (no)"
>>> class_label("C#CCN1C(=O)C(F)(F)Oc2cc(F)c(-n3c(=O)n(C)c(=S)n(C)c3=O)cc21 [Herbicide B, trifludimoxazin]")
"1 (yes)"

-- ask Identify whether the reported inhibition at 0.1 ppm of the following compound is 50% or greater: CCOC(=O)COc1ncccc1Oc1cc(-n2c(=O)cc(C(F)(F)F)n(C)c2=O)c(F)cc1Cl [Herbicide A, epyrifenacil]
-- reply 0 (no)

-- ask Hi team, for CCOC(=O)C1(C)CC(c2cc(-n3c(=O)cc(C(F)(F)F)n(C)c3=O)c(F)cc2Cl)=NO1 (centres unmarked) [Herbicide C] , is the recorded inhibition at 0.1 ppm at or above 50%?
-- reply 1 (yes)
